Biological target: CDK4/Cyclin D1 (Homo sapiens, UniProt P11802)
Sequence (P11802 whole entry): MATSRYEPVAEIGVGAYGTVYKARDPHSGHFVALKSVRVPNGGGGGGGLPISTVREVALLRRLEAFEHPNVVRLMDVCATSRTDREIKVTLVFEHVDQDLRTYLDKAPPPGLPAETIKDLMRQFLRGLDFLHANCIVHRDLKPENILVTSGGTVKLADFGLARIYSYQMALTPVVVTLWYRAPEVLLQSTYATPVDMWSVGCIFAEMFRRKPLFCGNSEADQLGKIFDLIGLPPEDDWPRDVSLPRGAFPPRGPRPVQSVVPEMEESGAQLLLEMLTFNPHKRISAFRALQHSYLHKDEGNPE
Sequence (P24385 whole entry partner): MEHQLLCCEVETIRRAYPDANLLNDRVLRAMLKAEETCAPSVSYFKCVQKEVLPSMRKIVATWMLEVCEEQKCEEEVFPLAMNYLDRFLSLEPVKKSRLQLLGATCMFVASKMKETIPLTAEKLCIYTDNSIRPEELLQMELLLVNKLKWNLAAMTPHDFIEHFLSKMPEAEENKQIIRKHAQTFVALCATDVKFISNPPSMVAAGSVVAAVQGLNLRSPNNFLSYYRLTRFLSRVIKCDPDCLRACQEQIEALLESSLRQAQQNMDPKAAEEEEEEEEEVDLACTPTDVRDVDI
Test: CDK4/Cyclin D1 kinase inhibition TR-FRET assay
Settings: 1 mM ATP, 0.15 μM Rb (Ser780)-biotin substrate, read-out: CDK4D1 IC50
Property label: IC50 (nM)

Prompt: Request - read-out IC50 | tested on CDK4/Cyclin D1 (Homo sapiens, UniProt P11802) | compound CC(C)c1c(CN2[C@H](C)COC[C@H]2C)cnc2ccc(-c3nc(N[C@@H]4CCOC[C@@H]4O)ncc3F)cc12
Response: 22

P: CC(C)c1c(CN[C@@H]2CCCOC2)cnc2c(F)cc(-c3nc(N[C@@H]4CCOC[C@@H]4O)ncc3F)cc12
Q: CC(C)c1c(C(C)(C)O)cnc2c(F)cc(-c3nc(N[C@@H]4CCOC[C@@H]4O)ncc3Cl)cc12
R: CC(C)c1c(C2(O)CCCC2)cnc2ccc(-c3nc(N[C@@H]4CCOC[C@@H]4O)ncc3F)cc12
S: CC(C)c1c(CN)cnc2ccc(-c3nc(N[C@@H]4CCOC[C@@H]4O)ncc3F)cc12
Prompt: Order the records, beginning with the lowest IC50 and ending with the highest. Submit the labels in the order that the ranking request calls for.
Response: S, R, Q, P
(S: 2.6 nM, R: 5.5 nM, Q: 9 nM, P: 21 nM)

###

Biological target: CDK4/Cyclin D1 (Homo sapiens, UniProt P11802)
Assay: CDK4/Cyclin D1 kinase inhibition TR-FRET assay
Settings: 1 mM ATP, 0.15 μM Rb (Ser780)-biotin substrate, read-out: CDK4D1 IC50
pIC50: −log10 of the molar value.
Property label: pIC50

Prompt: So what's the measured pIC50 for this one? CC(C)c1c(CN2CCOCC2)cnc2ccc(-c3nc(N[C@@H]4CCOC[C@@H]4O)ncc3F)cc12
Response: 7.68

Prompt: So what's the measured pIC50 for this one? CC(C)c1c(CN2[C@H](C)COC[C@@H]2C)cnc2ccc(-c3nc(N[C@@H]4CCOC[C@@H]4O)ncc3F)cc12
Response: 7.68

Prompt: So what's the measured pIC50 for this one? CC(C)c1c(CN[C@H]2CCOC2)cnc2ccc(-c3nc(N[C@@H]4CCOC[C@@H]4O)ncc3F)cc12
Response: 7.80

Prompt: So what's the measured pIC50 for this one? CC(C)c1c(CN2CC(O)C2)cnc2ccc(-c3nc(N[C@@H]4CCOC[C@@H]4O)ncc3F)cc12
Response: 7.59

Prompt: So what's the measured pIC50 for this one? CC(C)c1c(CNC2CC(F)(F)C2)cnc2c(F)cc(-c3nc(N[C@@H]4CCOC[C@@H]4O)ncc3F)cc12
Response: 7.82

A: CC(C)c1c(CNC2CC2)cnc2ccc(-c3nc(N[C@@H]4CCOC[C@@H]4O)ncc3F)cc12
B: CC(C)c1c(CN2CCC[C@H](C#N)C2)cnc2ccc(-c3nc(N[C@@H]4CCOC[C@@H]4O)ncc3F)cc12
C: CC(C)c1c(CN2CCC[C@@H](C#N)C2)cnc2ccc(-c3nc(N[C@@H]4CCOC[C@@H]4O)ncc3F)cc12
D: CC(C)c1c(C2(O)CCCC2)cnc2c(F)cc(-c3nc(N[C@@H]4CCOC[C@@H]4O)ncc3F)cc12
Prompt: Order the records, beginning with the lowest pIC50 and ending with the highest. Submit the labels in the order that the ranking request calls for.
Response: C, A, B, D
(C: 7.62, A: 7.92, B: 8.15, D: 8.36)

###

Biological target: CDK4/Cyclin D1 (Homo sapiens, UniProt P11802)
Assay: CDK4/Cyclin D1 kinase inhibition TR-FRET assay
Conditions: 1 mM ATP, 0.15 μM Rb (Ser780)-biotin substrate, read-out: CDK4D1 IC50
Property label: IC50 (nM)

A selection of reference data follows.
Prompt: So what's the measured IC50 for this one? CC(C)c1c(CN2[C@H](C)COC[C@@H]2C)cnc2c(F)cc(-c3nc(N[C@@H]4CCOC[C@@H]4O)ncc3F)cc12
Response: 7.6

Prompt: So what's the measured IC50 for this one? CC(C)c1c(CO)cnc2ccc(-c3nc(N[C@@H]4CCOC[C@@H]4O)ncc3F)cc12
Response: 7.9

1: CC(C)c1c(C2(O)CCOCC2)cnc2c(F)cc(-c3nc(N[C@@H]4CCOC[C@@H]4O)ncc3Cl)cc12
2: CC(C)c1c(CN[C@@H]2CCCOC2)cnc2ccc(-c3nc(N[C@@H]4CCOC[C@@H]4O)ncc3F)cc12
Prompt: For the pair 1 and 2 , which entry has the numerically smaller recorded IC50? Bench note: the answer is the label of the chosen record.
Response: 1
